target: Peroxisome proliferator-activated receptor alpha (Homo sapiens); experiment: Agonist activity against human Gal4-fussed PPARalpha in HEK293 cells by luciferase reporter gene assay
Sequence (Q07869 whole entry, the tested form may be a part): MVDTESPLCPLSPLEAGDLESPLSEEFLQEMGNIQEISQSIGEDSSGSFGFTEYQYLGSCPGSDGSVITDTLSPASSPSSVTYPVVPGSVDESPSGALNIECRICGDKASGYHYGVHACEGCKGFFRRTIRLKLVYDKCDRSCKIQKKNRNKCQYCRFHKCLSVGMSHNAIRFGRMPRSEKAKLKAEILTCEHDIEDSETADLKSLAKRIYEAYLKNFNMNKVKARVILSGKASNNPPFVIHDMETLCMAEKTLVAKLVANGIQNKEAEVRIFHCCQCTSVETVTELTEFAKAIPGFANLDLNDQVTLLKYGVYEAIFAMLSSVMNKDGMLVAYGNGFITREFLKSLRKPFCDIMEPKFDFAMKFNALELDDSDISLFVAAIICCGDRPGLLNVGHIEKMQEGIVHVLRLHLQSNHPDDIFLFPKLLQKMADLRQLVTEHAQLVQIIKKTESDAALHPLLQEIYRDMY
pEC50: −log10 of the molar value.
OUTCOME MEASURE: pEC50

COC(=O)N(CC(=O)O)Cc1cccc(OCc2csc(-c3cccc(Cl)c3)n2)c1 :: 5.84
COC(=O)N(CC(=O)O)Cc1cccc(OCc2coc(-c3ccc(F)cc3)n2)c1 :: 6.63
COC(=O)N(CC(=O)O)Cc1cccc(OCc2coc(-c3ccc(Cl)cc3)n2)c1 :: 7.19
COC(=O)N(CC(=O)O)Cc1cccc(OCc2csc(-c3ccc(Cl)cc3)n2)c1 :: 7.05
COc1ccc(OC(=O)N(CC(=O)O)[C@@H](C)c2cccc(OCc3coc(-c4ccc(Cl)cc4)n3)c2)cc1 :: 7.18
C[C@@H](c1cccc(OCc2coc(-c3ccc(Cl)cc3)n2)c1)N(CC(=O)O)C(=O)Oc1ccccc1 :: 6.84

----------
target: Peroxisome proliferator-activated receptor gamma (Homo sapiens, UniProt P37231); assay: Agonist activity against human Gal4-fussed PPARgamma in HEK293 cells by luciferase reporter gene assay
Sequence (P37231 whole entry, the tested form may be a part): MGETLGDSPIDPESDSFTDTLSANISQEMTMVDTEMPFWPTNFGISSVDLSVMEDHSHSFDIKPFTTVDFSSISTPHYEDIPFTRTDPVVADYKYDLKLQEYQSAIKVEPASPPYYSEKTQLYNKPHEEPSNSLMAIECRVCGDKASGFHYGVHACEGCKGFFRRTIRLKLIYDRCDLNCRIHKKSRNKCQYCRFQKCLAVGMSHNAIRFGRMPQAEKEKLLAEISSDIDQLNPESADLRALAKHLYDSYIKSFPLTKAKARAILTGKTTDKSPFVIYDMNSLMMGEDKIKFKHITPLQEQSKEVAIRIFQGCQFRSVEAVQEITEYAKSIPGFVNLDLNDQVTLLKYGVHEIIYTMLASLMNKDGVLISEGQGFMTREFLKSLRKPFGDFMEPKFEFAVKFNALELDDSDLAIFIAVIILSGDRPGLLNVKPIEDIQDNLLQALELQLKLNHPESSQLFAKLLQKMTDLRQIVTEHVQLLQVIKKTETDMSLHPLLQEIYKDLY
OUTCOME MEASURE: EC50

COC(=O)N(CC(=O)O)Cc1cccc(OCc2coc(-c3ccc(F)cc3F)n2)c1 :: > 25 µM
COC(=O)N(CC(=O)O)[C@@H](C)c1cccc(OCc2coc(-c3ccc(Cl)cc3)n2)c1 :: > 8.3 µM
COC(=O)N(CC(=O)O)Cc1cccc(OCc2coc(-c3ccc(Cl)cc3)n2)c1 :: 9.19 µM
COC(=O)N(CC(=O)O)Cc1cccc(OCc2coc(-c3ccc(C(F)(F)F)cc3)n2)c1 :: 4.81 µM
COC(=O)N(CC(=O)O)Cc1cccc(OCc2coc(-c3cccc(C)c3)n2)c1 :: > 25 µM
COC(=O)N(CC(=O)O)Cc1cccc(OCc2coc(-c3ccccc3)n2)c1 :: > 25 µM
COC(=O)N(CC(=O)O)Cc1cccc(OCc2csc(-c3ccc(C)cc3)n2)c1 :: 9.29 µM
COC(=O)N(CC(=O)O)Cc1cccc(OCc2csc(-c3ccccc3)n2)c1 :: > 25 µM
COC(=O)N(CC(=O)O)Cc1cccc(OCc2csc(-c3ccc(Cl)cc3)n2)c1 :: 4.69 µM
Cc1ccc(F)c(OC(=O)N(CC(=O)O)[C@@H](C)c2cccc(OCc3coc(-c4ccc(Cl)cc4)n3)c2)c1 :: 0.71 µM
COC(=O)N(CC(=O)O)Cc1cccc(OCc2csc(-c3cccc(Cl)c3)n2)c1 :: 4.02 µM
COC(=O)N(CC(=O)O)Cc1cccc(OCc2csc(-c3ccccc3Cl)n2)c1 :: 5.04 µM
COc1cccc(OC(=O)N(CC(=O)O)[C@@H](C)c2cccc(OCc3coc(-c4ccc(Cl)cc4)n3)c2)c1 :: 0.772 µM
